Molecular target: SHP2 (Homo sapiens (Human), UniProt Q06124)
Sequence (Q06124 whole entry): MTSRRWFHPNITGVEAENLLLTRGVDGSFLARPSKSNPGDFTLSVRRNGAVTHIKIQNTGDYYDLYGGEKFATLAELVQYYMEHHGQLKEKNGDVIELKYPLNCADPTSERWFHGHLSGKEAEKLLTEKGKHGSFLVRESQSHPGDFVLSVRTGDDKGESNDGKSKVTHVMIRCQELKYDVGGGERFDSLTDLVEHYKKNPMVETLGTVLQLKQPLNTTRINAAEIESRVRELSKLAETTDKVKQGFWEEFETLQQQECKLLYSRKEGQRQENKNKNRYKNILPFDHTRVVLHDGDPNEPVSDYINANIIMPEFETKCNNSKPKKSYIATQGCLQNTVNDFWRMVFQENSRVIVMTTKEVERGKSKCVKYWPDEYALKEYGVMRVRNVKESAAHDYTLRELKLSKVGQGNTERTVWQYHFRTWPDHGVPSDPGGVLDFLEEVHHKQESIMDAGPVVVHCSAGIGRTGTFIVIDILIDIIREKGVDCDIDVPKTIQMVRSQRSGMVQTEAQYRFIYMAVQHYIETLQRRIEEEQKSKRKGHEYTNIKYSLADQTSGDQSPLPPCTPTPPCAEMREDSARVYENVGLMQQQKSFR
Assay: SHP2 allosteric inhibitory enzyme activity assay (DiFMUP fluorescence)
Type: biochemical
Settings: read-out: SHP2 enzymatic activity IC50
Consider the following compounds; for each one, report its IC50.
# output: bare number, implied unit nM

Q) # query: IC50 of entry N[C@@H]1c2ccccc2CC12CCN(c1ncc(C#CCOc3ccc4c(c3)NC(=O)CC4)nc1CO)CC2
A) 4.6

Q) Also, N[C@@H]1c2ccccc2CC12CCN(c1ncc(C#CCOc3ccc(C(=O)NC4CC4)cc3)nc1CO)CC2 please.
A) 3.4

Q) Also, Nc1cccc(OCC#Cc2cnc(N3CCC4(CC3)Cc3ccccc3[C@H]4N)c(CO)n2)c1 please.
A) 1.1

Q) Also, COc1ccc2c(c1)[C@@H](N)C1(CCN(c3ncc(C#CCOc4ccc(C(N)=O)cc4)nc3CO)CC1)C2 please.
A) 1.5

Ref: patent US20230339882A1
